IC50 values by entry
SUBJECT_OF_TEST: HSD17B13 (Homo sapiens (Human), UniProt Q7Z5P4)
Sequence (Q7Z5P4 other isoform, or with tags, fused parts or gaps): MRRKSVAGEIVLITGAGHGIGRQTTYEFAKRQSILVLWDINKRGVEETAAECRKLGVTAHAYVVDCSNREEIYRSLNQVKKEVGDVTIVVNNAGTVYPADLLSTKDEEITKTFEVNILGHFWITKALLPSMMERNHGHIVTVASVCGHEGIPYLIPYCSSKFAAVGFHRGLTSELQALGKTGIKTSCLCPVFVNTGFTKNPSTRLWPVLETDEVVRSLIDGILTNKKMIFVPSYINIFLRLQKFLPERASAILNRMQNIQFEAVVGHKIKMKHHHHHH
EXPERIMENT_DESCRIPTION: HSD17B13 enzymatic inhibition assay (150 nM or 50 nM HSD17B13)
Format: biochemical
EXPERIMENTAL_CONTEXT: 50 nM HSD17B13; read-out: Inhibition of 50 nM of HSD17B13 IC50

COMPOUND	IC50
Cc1ccc(C(NC(=O)c2ccc(C(F)(F)F)[nH]c2=O)C2CCC(C)CC2)cc1 (stereo not shown) [Compound 400]	230 nM
O=C(NC(c1ccccc1)c1ccc(C2=CCOCC2)cc1)c1ccc(C(F)(F)F)[nH]c1=O (stereo not shown) [Compound 33]	820 nM
Cc1ccc2c(c1)Oc1cc(C)ccc1C2NC(=O)c1cc(N2CCNCC2)c(C(F)(F)F)[nH]c1=O [Compound 434]	110 nM
O=C(NC1c2ccccc2Oc2cc(C3COC3)ccc21)c1ccc(C(F)(F)F)[nH]c1=O (stereo not shown) [Compound 488]	110 nM
CCc1ccc2c(c1)C(NC(=O)c1ccc(C(F)(F)F)[nH]c1=O)c1ccccc1S2(=O)=O (stereo not shown) [Compound 468]	190 nM
CCCc1cc(C(F)(F)F)[nH]c(=O)c1C(=O)NC1c2ccc(Cl)cc2Oc2cc(Cl)ccc21 [Compound 210]	930 nM
Cc1ccc2c(c1)Oc1cccc(C)c1C2NC(=O)c1cc(-c2ccccc2)c(C(F)(F)F)[nH]c1=O (stereo not shown) [Compound 175]	280 nM

---

SUBJECT_OF_TEST: HSD17B13 (Homo sapiens (Human), UniProt Q7Z5P4)
EXPERIMENT_DESCRIPTION: HSD17B13 enzymatic inhibition assay (150 nM or 50 nM HSD17B13)
Assay type: biochemical
EXPERIMENTAL_CONTEXT: 50 nM HSD17B13; read-out: Inhibition of 50 nM of HSD17B13 IC50
IC50 values by entry
REPORTED_METRIC: IC50

MOLECULE	MEASUREMENT
Cc1ccc2c(c1)Oc1cc(C)ccc1C2NC(=O)c1cc(C2=CCN(C)CC2)c(C(F)(F)F)[nH]c1=O	0.34 µM
CCCC1=C(NC(=O)c2ccc(C(F)(F)F)[nH]c2=O)c2cc(C)ccc2C1O (stereo not shown)	1.15 µM
CCc1ccc2c(c1)Oc1cc(CC)ccc1C2NC(=O)c1ccc(C(F)(F)F)[nH]c1=O	0.09 µM
Cc1ccc2c(c1)C(NC(=O)c1ccc(C(F)(F)F)[nH]c1=O)CS2 (stereo not shown)	1.23 µM
O=C(NC(c1ccccc1)c1ccc2c(c1)COCC2)c1ccc(C(F)(F)F)[nH]c1=O (stereo not shown)	2.37 µM
O=C(NC(c1ccccc1)c1ccc(-c2cncnc2)cc1)c1ccc(C(F)(F)F)[nH]c1=O (stereo not shown)	2.14 µM
N#Cc1cccc2c1CCCC2NC(=O)c1ccc(C(F)(F)F)[nH]c1=O (stereo not shown)	8.37 µM
O=C(NC(c1ccccc1)c1ccc2c(c1)OCC2)c1ccc(C(F)(F)F)[nH]c1=O (stereo not shown)	1.04 µM
Cc1ccc2c(c1)C(NC(=O)c1ccc(C(F)(F)F)[nH]c1=O)c1cc(C)ccc1-2	0.07 µM
CSc1ccccc1C(NC(=O)c1ccc(C(F)(F)F)[nH]c1=O)c1ccc(C)cc1 (stereo not shown)	0.3 µM
O=C(NC1c2ccccc2Sc2ccccc21)c1ccc(C(F)F)[nH]c1=O	2.71 µM
Cc1ccc2c(c1)C(NC(=O)c1ccc(C(F)(F)F)[nH]c1=O)c1ccccc1O2 (stereo not shown)	0.67 µM
O=C(NC1c2ccc(C3CC3)cc2Oc2cc(C3CC3)ccc21)c1ccc(C(F)(F)F)[nH]c1=O	0.21 µM
Cc1ccc2c(c1)Oc1cc(C)ccc1C2NC(=O)c1cc(-c2ncccn2)c(C(F)(F)F)[nH]c1=O	0.01 µM
O=C(NC(c1ccc(Cl)cc1)c1ncccn1)c1ccc(C(F)(F)F)[nH]c1=O (stereo not shown)	5.85 µM
O=C(NC1c2ccccc2Oc2ccncc21)c1ccc(C(F)(F)F)[nH]c1=O (stereo not shown)	1.29 µM
